Assay: Pharmacokinetic test in mice, plasma concentration by LC/MS/MS
Format: in vivo
Details: male ICR mice, 30 mg/kg by gavage, CMC/TW80 carrier, n = 4, mean
readout.name: Cmax

>>> observed_measurement("C=CC(=O)N1CCN(c2nc(=O)n(-c3c(C(C)C)cccc3S(C)(=O)=O)c3nc(-c4c(O)cccc4F)c(F)cc23)[C@@H](C)C1 (single isomer, unassigned) [Example 10B]")
"1570 ng/mL"
>>> observed_measurement("C=CC(=O)N1C[C@H](C)N(c2nc(=O)n(-c3c(C(C)C)cccc3S(C)(=O)=O)c3nc(-c4c(O)cccc4F)c(F)cc23)C[C@H]1C (single isomer, unassigned) [Example 78B]")
"722 ng/mL"
>>> observed_measurement("C=CC(=O)N1C[C@H](C)N(c2nc(=O)n(-c3c(C4CCC4)cccc3S(C)(=O)=O)c3nc(-c4c(O)cccc4F)c(F)cc23)C[C@H]1C (single isomer, unassigned) [Example 63B]")
"796 ng/mL"
>>> observed_measurement("C=CC(=O)N1CCN(c2nc(=O)n(-c3c(C(C)C)ccnc3S(C)(=O)=O)c3nc(-c4c(O)cccc4F)c(F)cc23)[C@@H](C)C1 (single isomer, unassigned) [Example 16B]")
"26.1 ng/mL"

----------
The following molecules are shown together with reported AUC0-t values.
Test: Pharmacokinetic test in mice, plasma concentration by LC/MS/MS
Assay type: in vivo
Details: male ICR mice, 30 mg/kg by gavage, CMC/TW80 carrier, n = 4, mean
readout.name: AUC0-t (ng·h/mL)

>>> observed_measurement("C=CC(=O)N1CCN(c2nc(=O)n(-c3c(C(C)C)cccc3S(C)(=O)=O)c3nc(-c4c(O)cccc4F)c(F)cc23)[C@@H](C)C1 (single isomer, unassigned) [Example 10B]")
1548
>>> observed_measurement("C=CC(=O)N1C[C@H](C)N(c2nc(=O)n(-c3c(C4CCC4)cccc3S(C)(=O)=O)c3nc(-c4c(O)cccc4F)c(F)cc23)C[C@H]1C (single isomer, unassigned) [Example 63B]")
1540
>>> observed_measurement("C=CC(=O)N1C[C@H](C)N(c2nc(=O)n(-c3c(C(C)C)cccc3S(C)(=O)=O)c3nc(-c4c(O)cccc4F)c(F)cc23)C[C@H]1C (single isomer, unassigned) [Example 78B]")
688
>>> observed_measurement("C=CC(=O)N1CCN(c2nc(=O)n(-c3c(C(C)C)ccnc3S(C)(=O)=O)c3nc(-c4c(O)cccc4F)c(F)cc23)[C@@H](C)C1 (single isomer, unassigned) [Example 16B]")
46.1

----------
Tested on: NCI-H358 (KRAS^G12C mutation) cell
Test: Cell assay of antiproliferative activity against NCI-H358 cell (Celltiter-Glo, 5 days)
Type: cell-based
Conditions: Homo sapiens, NCI-H358, 120 h, 5 days incubation
readout.name: IC50 (nM)

>>> observed_measurement("C=CC(=O)N1CCN(c2nc(=O)n(-c3c(C(C)C)ccnc3S(C)(=O)=O)c3nc(-c4ccc(F)cc4Cl)c(F)cc23)[C@@H](C)C1")
39
>>> observed_measurement("C=CC(=O)N1CCN(c2nc(=O)n(-c3c(C)cccc3N(C)S(C)(=O)=O)c3nc(-c4c(O)cccc4F)c(F)cc23)[C@@H](C)C1")
180

----------
Test: Pharmacokinetic test in mice, plasma concentration by LC/MS/MS
Format: in vivo
Conditions: mouse, po, male ICR mice, 30 mg/kg by gavage, CMC/TW80 carrier, n = 4, mean, read-out: Cmax
Experimental: Evaluation of Pharmacokinetic Tests in Mice Male ICR mice with a body weight of about 20-30 g, were given 30 mg/kg of solutions of compounds of Examples 10B, 16B, 18A, 63B and 78B of the present invention [CMC/TW80 as carrier] by gavage after fasting overnight. Blood samples were collected at 0.5, 1.0, 2.0, 4.0, 6.0, 8.0, 12 and 24 hours after the compound was administrated, and the concentrations of the compound in plasma were determined by LC/MS/MS.
readout.name: Cmax

>>> observed_measurement("C=CC(=O)N1CCN(c2nc(=O)n(-c3c(S(C)(=O)=O)ccnc3C(C)C)c3nc(-c4c(O)cccc4F)c(F)cc23)[C@@H](C)C1 (single isomer, unassigned) [Example 18A]")
"336 ng/mL"
